Target: Beta-1 adrenergic receptor (Homo sapiens, UniProt P08588)
Sequence (P08588 whole entry): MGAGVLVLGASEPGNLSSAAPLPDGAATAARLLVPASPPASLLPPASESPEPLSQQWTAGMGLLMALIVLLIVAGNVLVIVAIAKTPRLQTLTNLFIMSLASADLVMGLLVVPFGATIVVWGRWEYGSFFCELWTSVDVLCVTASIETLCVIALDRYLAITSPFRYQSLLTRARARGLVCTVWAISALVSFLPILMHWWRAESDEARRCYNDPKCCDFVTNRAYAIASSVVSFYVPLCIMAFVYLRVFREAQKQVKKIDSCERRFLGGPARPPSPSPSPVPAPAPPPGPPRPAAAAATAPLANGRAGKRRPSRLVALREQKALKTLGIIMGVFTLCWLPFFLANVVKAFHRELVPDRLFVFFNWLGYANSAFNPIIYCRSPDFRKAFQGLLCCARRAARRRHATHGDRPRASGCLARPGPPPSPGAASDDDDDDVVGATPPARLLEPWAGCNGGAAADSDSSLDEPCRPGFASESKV
Experiment: Agonist activity at human beta-1 adrenoceptor expressed in CHO cells assessed as cAMP accumulation incubated for 10 mins by radioimmunoassay
pEC50: −log10 of the molar value.
Assay Endpoint: pEC50

Need pEC50, item Nc1nc(CC(=O)Nc2ccc(CCNC[C@H](O)c3ccccc3)cc2)cs1 [MIRABEGRON] ≤ 5.00

----------
Target: UniProt:P22303
Sequence (P22303 whole entry): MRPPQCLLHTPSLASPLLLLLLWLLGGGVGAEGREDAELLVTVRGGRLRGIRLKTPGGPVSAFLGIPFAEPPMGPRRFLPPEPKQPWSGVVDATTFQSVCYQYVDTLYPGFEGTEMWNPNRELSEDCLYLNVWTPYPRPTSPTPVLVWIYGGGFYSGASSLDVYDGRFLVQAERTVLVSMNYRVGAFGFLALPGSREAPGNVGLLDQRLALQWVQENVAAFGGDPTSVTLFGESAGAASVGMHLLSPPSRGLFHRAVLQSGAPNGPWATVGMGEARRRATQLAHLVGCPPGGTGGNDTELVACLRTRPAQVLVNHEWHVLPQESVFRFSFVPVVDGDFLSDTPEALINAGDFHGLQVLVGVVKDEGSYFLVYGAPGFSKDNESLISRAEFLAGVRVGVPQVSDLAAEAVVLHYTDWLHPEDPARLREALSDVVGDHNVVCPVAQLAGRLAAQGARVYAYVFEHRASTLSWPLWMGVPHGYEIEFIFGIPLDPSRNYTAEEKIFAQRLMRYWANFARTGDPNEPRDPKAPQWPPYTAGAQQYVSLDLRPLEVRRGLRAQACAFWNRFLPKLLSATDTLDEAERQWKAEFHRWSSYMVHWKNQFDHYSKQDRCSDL
Assay Endpoint: pIC50
Formally, pIC50 is defined as -log10 of the concentration c, with c in mol/L.

For the record COc1cc(O)c(C(=O)Nc2nc(C(=O)NCCN(C(C)C)C(C)C)cs2)cc1OC , what value of pIC50 is listed for UniProt:P22303? 5.75

----------
Target: Beta-1 adrenergic receptor (Homo sapiens)
Assay Endpoint: pKi
Formally, pKi is defined as -log10 of the concentration c, with c in mol/L.

Need pKi, item CC(C)(C)NCC(O)CSc1nc(-c2ccc(C(N)=O)s2)cs1 (stereo unspecified) 9.74

----------
Assay: in vivo
Details: Sprague-Dawley, rat, po, 10 mg/kg
Description: Half life in fasted Sprague-Dawley rat at 10 mg/kg, po administered via gavage measured for 10 hrs by LC/MS/MS analysis
Assay Endpoint: half-life at 10 h (h)
The figure you give is taken to be in h; do not add the unit.

Need half-life at 10 h, item Cc1nc(Nc2ncc(C(=O)Nc3c(C)cccc3Cl)s2)cc(N2CCN(CCO)CC2)n1.O 3.1

----------
Target: D(3) dopamine receptor (Homo sapiens, UniProt P35462)
Sequence (P35462 whole entry): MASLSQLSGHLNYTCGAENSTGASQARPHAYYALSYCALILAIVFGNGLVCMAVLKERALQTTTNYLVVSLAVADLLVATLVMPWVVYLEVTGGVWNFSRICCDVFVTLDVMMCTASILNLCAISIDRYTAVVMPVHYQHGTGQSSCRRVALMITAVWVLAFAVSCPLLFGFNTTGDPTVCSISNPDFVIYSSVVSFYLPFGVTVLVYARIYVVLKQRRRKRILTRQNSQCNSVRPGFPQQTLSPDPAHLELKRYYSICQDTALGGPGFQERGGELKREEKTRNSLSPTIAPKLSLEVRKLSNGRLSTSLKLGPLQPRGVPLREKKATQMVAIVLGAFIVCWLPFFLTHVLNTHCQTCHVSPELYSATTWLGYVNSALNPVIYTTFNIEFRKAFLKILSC
Where a name gives a salt, the structure may show the parent alone.
Assay Endpoint: Ki (nM)
The figure you give is taken to be in nM; do not add the unit.

For the record CCCN[C@H]1CCc2nc(N)sc2C1 [PRAMIPEXOLE DIHYDROCHLORIDE] , what value of Ki is listed for D(3) dopamine receptor (Homo sapiens, UniProt P35462)? 0.5

----------
Test: in vivo
Details: Sprague-Dawley, rat, iv, 10 mg/kg
Description: Half life in fasted Sprague-Dawley rat at 10 mg/kg, iv measured for 10 hrs by LC/MS/MS analysis
Assay Endpoint: half-life at 10 h (min)
The figure you give is taken to be in min; do not add the unit.

Need half-life at 10 h, item Cc1nc(Nc2ncc(C(=O)Nc3c(C)cccc3Cl)s2)cc(N2CCN(CCO)CC2)n1.O 198

----------
Test: Terminal half life in fasted Sprague-Dawley rat at 3 mg/kg, po measured for 24 hrs by LC-MS/MS analysis
Format: ADME, organism-based
Settings: in vivo, read-out: beta t1/2 (converted)
Assay Endpoint: half-life

Need half-life, item COc1ccc2c(O[C@@H]3C[C@H]4C(=O)N[C@]5(C(=O)NS(=O)(=O)C6CC6)C[C@H]5/C=C\CCCCN(C)C(=O)[C@@H]4C3)cc(-c3nc(C(C)C)cs3)nc2c1C 90 min
